test system: IgG; experiment: Coating durability using water washes, IgG binding by colloidal gold; conditions: coated polystyrene, no water wash
Parameter measured: Absorbance (550 nm) Initial
Answers are plain numbers.

>>> result("PEO(4) SORBITOL MONO-LAURATE")
0.00
>>> result("SORBITOL MONO-OLEATE")
0.00
>>> result("SORBITOL MONO-LAURATE")
0.00
>>> result("PEO(20) SORBITOL MONO-LAURATE")
0.00
>>> result("SORBITOL TRI-OLEATE")
0.00

Provide reported Absorbance (550 nm) Initial for each item, in the same order as listed.
1. SORBITOL MONO-STEARATE
2. SORBITOL MONO-PALMITATE
3. PEO(20) SORBITOL TRI-STEARATE

0.00
0.00
0.00

Test item PEO(4) SORBITOL MONO-STEARATE ; IgG; reported Absorbance (550 nm) Initial was 0.00
